# STUDY SYSTEM: T1, NHERF3_1, Q5T2W1
# T1 sequence (Q5T2W1 4-100, limits assumed, looked up): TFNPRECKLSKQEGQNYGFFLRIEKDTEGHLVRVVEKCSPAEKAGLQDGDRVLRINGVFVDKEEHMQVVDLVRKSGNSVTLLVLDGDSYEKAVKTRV
# PROTOCOL TEXT: holdup assay
# Design: key: below the threshold = too weak to quantify, mostly under pKd 3.1 to 4
# STATED CONDITIONS: plain residues with an end cap or a label only (N-terminal biotin on a linker: ado-ado)
READOUT: pKd
Keep it simple and answer with nothing but the number.

Input: State the recorded pKd for this entry: LESTTVGTSV [KARS1, Q15046]
Output: 4.13

Input: State the recorded pKd for this entry: GTGYDRKDYV [CLDN3, O15551]
Output: 4.55

Input: State the recorded pKd for this entry: TISFTQTSQF [SLC1A1, P43005]
Output: 4.73

Input: State the recorded pKd for this entry: DPAESMESLV [PTPRG, P23470]
Output: 4.7

Input: State the recorded pKd for this entry: PSVGSKKTVL [REELD1, A0A1B0GV85]
Output: 3.72

Input: State the recorded pKd for this entry: VLYPREGTEV [FOXI1, Q12951]
Output: 3.7

Input: State the recorded pKd for this entry: QSGLYESEEL [MYOT, Q9UBF9]
Output: 4.44

Input: State the recorded pKd for this entry: SVTSERETNI [SLC16A7, O60669]
Output: 3.49

Input: State the recorded pKd for this entry: KRPEMTSSSV [MUC3B, MUC3A, Q02505;Q9H195]
Output: 3.85

Input: State the recorded pKd for this entry: RQKEVRESKC [SCN8A, Q9UQD0]
Output: 4.71

Input: State the recorded pKd for this entry: ARSAAASNYV [CLDN4, O14493]
Output: 4.48

Input: State the recorded pKd for this entry: RDPPAEWTRV [PTPN18, Q99952]
Output: 4.33

Input: State the recorded pKd for this entry: NTLNRKTTPV [CACNG8, Q8WXS5]
Output: 3.48

Input: State the recorded pKd for this entry: SRSVVESDEL [MYPN, Q86TC9]
Output: 5.44

Input: State the recorded pKd for this entry: SPDRDRESIV [SCN5A, Q14524]
Output: 3.72

Input: State the recorded pKd for this entry: EDPRVEVTQF [SLC22A9, Q8IVM8]
Output: 4.58

Input: State the recorded pKd for this entry: NIAESLESLV [PTPRZ1, P23471]
Output: 4.59

Input: State the recorded pKd for this entry: QKAPTKEFYA [SDC2, P34741]
Output: 3.86

Input: State the recorded pKd for this entry: MHIQEKGFHV [EPHA6, Q9UF33]
Output: 3.71

Input: State the recorded pKd for this entry: PSHPRLQTHV [KIRREL2, Q6UWL6]
Output: 4.57
